Cited source: patent US6869968B1

target-desc: Cyclooxygenase-1 (COX-1) (Homo sapiens)
Construct: Platelets were isolated from peripheral human blood obtained from healthy donors; endogenous in cells; host or cells: human platelets from peripheral blood of healthy donors
Sequence (P23219 24-599): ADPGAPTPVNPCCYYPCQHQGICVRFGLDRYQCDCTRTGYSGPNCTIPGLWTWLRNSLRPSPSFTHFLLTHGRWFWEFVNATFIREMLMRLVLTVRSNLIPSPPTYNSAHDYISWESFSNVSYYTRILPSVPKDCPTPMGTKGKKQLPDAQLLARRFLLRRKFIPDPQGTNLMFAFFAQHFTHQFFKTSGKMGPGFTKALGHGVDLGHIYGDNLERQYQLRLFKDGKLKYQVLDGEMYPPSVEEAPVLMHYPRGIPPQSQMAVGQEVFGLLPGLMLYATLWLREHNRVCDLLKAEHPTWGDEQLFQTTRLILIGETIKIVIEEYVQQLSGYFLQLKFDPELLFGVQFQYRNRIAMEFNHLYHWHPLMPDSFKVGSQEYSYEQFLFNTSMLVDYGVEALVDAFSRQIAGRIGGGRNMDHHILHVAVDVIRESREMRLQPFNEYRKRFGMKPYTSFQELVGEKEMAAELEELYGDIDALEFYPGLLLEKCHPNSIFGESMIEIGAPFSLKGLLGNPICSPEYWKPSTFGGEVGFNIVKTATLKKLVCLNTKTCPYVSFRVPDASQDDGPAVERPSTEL
assay-protocol: Inhibition of cyclooxygenase-1 (COX-1) activity in human platelets (thromboxane B2 ELISA)
Format: cell-based
condition-label: 50 μM arachidonic acid, mean of three independent experiments, read-out: COX-1 (μM), results expressed as IC50 values
readout-kind: IC50

substance_smiles=CS(=O)(=O)c1ccc(-c2coc(=O)n2-c2ccc(Br)cc2)cc1 experimental_value="> 100 µM"
substance_smiles=NS(=O)(=O)c1ccc(-c2coc(=O)n2-c2ccccc2F)cc1 experimental_value="22.6 µM"
substance_smiles=NS(=O)(=O)c1ccc(-c2coc(=O)n2-c2ccc(F)cc2F)cc1 experimental_value="8.9 µM"
substance_smiles=NS(=O)(=O)c1ccc(-c2coc(=O)n2-c2ccc(F)cc2)cc1 experimental_value="1.5 µM"
substance_smiles=CS(=O)(=O)c1ccc(-c2coc(=O)n2-c2ccc(F)cc2)cc1 experimental_value="127 µM"

Kindly consider the entry below.
Challenge: Consider the compound NS(=O)(=O)c1ccc(-c2coc(=O)n2-c2ccc(Cl)c(Cl)c2)cc1 and give its recorded IC50.
Response given: 3.5 µM
